System: HOP-92 NSCLC
assay.details: NCI tumour cell line growth inhibition, 48 h
endpoint.name: TGI

compound: Clc1ccccc1-c1nn2c(CCCCCCCCc3nnc4sc(-c5ccccc5Cl)nn34)nnc2s1
TGI: > 100 µM

compound: O=C1CCCSCCCC(=O)CCCSCCC1
TGI: > 100 µM

compound: CN(C)c1ccc(/C=C(\NC(=O)c2ccccc2)c2nc3ccccc3c(=O)o2)cc1
TGI: > 100 µM

compound: O=C(O)C(Cc1ccccc1-c1ccccc1)C(=O)O
TGI: > 100 µM

compound: Cc1cc(S(=O)(=O)Nc2nnc(-c3ccco3)c(-c3ccco3)n2)c(SCc2ccccc2)cc1Cl
TGI: 45.4 µM

compound: CCOC(=O)c1sc2ncn(Cc3cccc(Cl)c3)c(=O)c2c1C
TGI: 24.5 µM

Need TGI of COc1ccccc1/[N+]([O-])=C/c1ccccc1OC(=S)S , thanks.
61.8 µM

###

Tested on: BT-549 breast
assay.details: NCI tumour cell line growth inhibition, 48 h
endpoint.name: TGI (µM)
Give just the number in µM; leave the unit off.

smiles.entry: O=C(Oc1cccc(Nc2ncnc3ccccc23)c1)c1ccccc1Cl
unit.label: µM
TGI: 62.3

Consider now this further compound.
Looking for the measured TGI of O=C(c1c(F)c(F)c(F)c(F)c1F)n1c(=O)[nH]c2ccccc21 , can you help?
37.5

###

Test system: NCI-H460 lung
The reply should name one outcome from TRUE (active), FALSE (inactive)

Consider the worked cases shown below.
compound: COc1ccc2c(CN3CCC(CO)CC3)cc3cc4c(cc3c2c1)OCO4
answer.label: TRUE

compound: Cc1cc(S(=O)(=O)Nc2nnc(-c3ccco3)c(-c3ccco3)n2)c(SCc2ccccc2)cc1Cl
answer.label: FALSE

Dear colleague, could you share the recorded outcome for COc1ccc(/C=C\c2cc(OC)c(OC)c(OC)c2)cc1NC(=O)[C@@H](N)CO when you have a moment?
TRUE

Name the outcome recorded for CCN(Cc1ccc(F)cc1F)c1ccc(CO)c(Cl)c1 in the assay.
TRUE

###

System: T-47D breast
assay.details: NCI tumour cell line growth inhibition, 48 h
TGI reference

Solved cases below.
compound: COc1ccccc1-c1n[nH]c(-c2ccccc2O)n1
TGI: > 100 µM

compound: Cn1cc(-c2nc(-c3c[nH]c4ncccc34)cs2)c2cc(Cl)ccc21
TGI: 23.6 µM

compound: CCCCn1c(C)c(C)c2c1NN=C(C#N)S2(=O)=O
TGI: > 100 µM

compound: CC1=C(C(=O)Nc2ccc(F)c(Cl)c2)C(c2cccc(O)c2)NC(=S)N1 (stereo not given)
TGI: > 50 µM

Then this compound:
Please tell me: TGI of COC(=O)C1=C(O)C(C(=O)OC)[C@]2(O)[C@H](C(=O)OC)[C@H]1C[C@@H](c1ccc(O)cc1)[C@H]2C(=O)OC (stereo not given in full) , system T-47D breast?
> 100 µM

###

Tested on: PC-3 prostate
assay.details: NCI tumour cell line growth inhibition, 48 h
TGI reference

Examples from the recorded data:
compound: Cc1ccc([N+](=O)[O-])cc1S(=O)(=O)Nc1ccc(C2=NOC(c3ccccc3)C2)cc1 (stereo not given)
recorded.value: > 100 µM
//
compound: Cc1cc(Cl)ccc1NC(=O)/C(Cc1nc2ccc(C(=O)c3ccccc3)cc2[nH]c1=O)=N/NC(=O)c1ccncc1
recorded.value: > 100 µM

Can you share its TGI? I mean this compound: COc1ccc(-c2nc3sccn3c2/C=C/C(=O)c2cc(OC)c(OC)c(OC)c2)cc1OC
6.96 µM

Reported TGI for CCOC(=O)c1[nH]c2cccc3c2c1CC(Br)C3=O (stereo not given) : what is it?
33 µM

Bench note: what TGI did CC(C)C(=O)CC(Sc1ccc(N)cc1)c1ccccc1 (stereo not given) show?
> 100 µM

###

Test system: DMS 273 small cell lung
assay.details: NCI tumour cell line growth inhibition, 48 h
TGI for assorted compounds

Worked cases, answers included:
compound: O=C(c1ccccc1)c1ccc2cccc(O)c2n1
recorded.value: > 100 µM
//
compound: CC[N+](C)(C)c1ccc(C(=C2C=CC(=[N+](C)C)C=C2)c2ccc(N(C)C)cc2)cc1
recorded.value: 25.6 µM
//
compound: CN1NC2=NCCN=C3NN(C)C(=NCCN=C1S2)S3
recorded.value: > 100 µM
//
compound: COC(=O)C1Cc2c(n(C)c3ccccc23)C(c2ccccc2)N1 (centres undefined)
recorded.value: > 100 µM
//
compound: COc1c2c(c(OC)c3c(=O)cc(C/C(=N/NC(=O)C[n+]4ccccc4)C(=O)Nc4cc(C)ccc4C)oc13)OCO2
recorded.value: > 100 µM
//
compound: O=[N+]([O-])c1ccc(OCCNc2cccc3ccccc23)cc1
recorded.value: > 100 µM
//
compound: Cc1cc(N(CCC#N)CCC#N)ccc1N=Nc1ccccc1[N+](=O)[O-]
recorded.value: > 100 µM
//
compound: COC(=O)[C@H](C)[C@H]1CC[C@@](C)([C@H]2CC3C(C)(C)[C@H]4CCC(C)=C[C@H]4C[C@@]3(C)O2)OO1 (some centres undefined)
recorded.value: 26.1 µM

Now consider a different compound.
Value lookup for TGI; key = CCCOP1(=O)C=C(C)C(Cl)=C(C)C1 (centres undefined)
36.7 µM

###

Tested on: OVCAR-4 ovarian
assay.details: NCI tumour cell line growth inhibition, 48 h
Quick reference for TGI among some molecules

molecule: COC(=O)C1=C(O)C(C(=O)OC)[C@]2(O)[C@H](C(=O)OC)[C@H]1C[C@@H](c1ccc(Cl)cc1Cl)[C@H]2C(=O)OC (stereo partly drawn)
TGI: 67.6 µM
--
molecule: Cc1nc(C)c(N2CCN(C(=O)NC(CCC(=O)O)C(=O)O)CC2)c(=O)[nH]1 (stereo not drawn)
TGI: > 100 µM
--
molecule: CCCCCCC(O)C/C=C/CCCCCC/C(C(=O)OC)=C(/O)C(=O)OCC (stereo not drawn)
TGI: > 100 µM
--
molecule: CC(SC(=S)N1CCCC1)C(=O)Nc1nnc(-c2ccc(Cl)cc2)o1 (stereo not drawn)
TGI: > 100 µM
--
molecule: Cc1cc(N(CCC#N)CCC#N)ccc1N=Nc1ccccc1[N+](=O)[O-]
TGI: > 100 µM
--
molecule: Cc1cccc2c1CC(C1OC(=O)c3c(C)cccc31)C2=O (stereo not drawn)
TGI: > 100 µM
--
molecule: O=C(Nc1ncc([N+](=O)[O-])s1)c1cccc([N+](=O)[O-])c1
TGI: > 100 µM
--
molecule: COc1ccc(-n2c(-c3ccc(NC(=O)CCCl)cc3)nnc2-c2cc(OC)c(OC)c(OC)c2)cc1
TGI: > 14.3 µM
--
molecule: COC(=O)C1C(O)C(C)C(O)C(C)/C=C\C=C(C)C(=O)Nc2c(C)c(OC(C)=O)c3c(c2O)C(=O)C(C)=C2OCOC(=C23)C(C)=CC(C)(O)C(O)C(C)C1O (stereo not drawn)
TGI: > 100 µM
--
molecule: COC(=O)C1=C(C(=O)OC)C2(c3ccccc3)c3ccccc3C(=O)C1N2C1CCCCC1 (stereo not drawn)
TGI: > 100 µM

Quick check: TGI on OVCAR-4 ovarian, item Cc1nc2ccc(S(=O)(=O)Nc3ccccn3)cc2c(=O)n1NS(=O)(=O)c1ccccn1 ?
> 100 µM

Record lookup: for OVCAR-4 ovarian, what TGI belongs to CCOC(=O)Nn1cnnc1Cc1ccccc1 ?
> 100 µM

What is its TGI for OVCAR-4 ovarian? Entry: CC1=CCP(C(F)(F)F)P(C(F)(F)F)C1 (stereo not drawn)
> 100 µM

Form entry - test system: OVCAR-4 ovarian; read-out: TGI; molecule: O=C1CSC2(CC(/C=C/c3cccc(Br)c3)=NN2c2cccc(S(=O)(=O)O)c2)N1c1nc2ccccc2s1 (stereo not drawn)
> 100 µM

Under OVCAR-4 ovarian: TGI value of COC(=O)CC(SCCO)SCCO ?
> 100 µM

Query for OVCAR-4 ovarian: what TGI does the record show for COc1ccccc1/[N+]([O-])=C/c1ccccc1OC(=S)S ?
> 100 µM

Recall the recorded TGI for C=C1C(=O)O[C@H]2[C@H]1CC/C(COC(=O)/C=C/c1cccnc1)=C\CC[C@@]1(C)O[C@@H]21 with OVCAR-4 ovarian and state it.
16.9 µM

For the record Cc1ccc(C)c(NC(=O)CC2C(=O)Nc3ccccc3S2(=O)=O)c1 (stereo not drawn) , what value of TGI is listed for OVCAR-4 ovarian?
38.7 µM

# value lookup — system OVCAR-4 ovarian, readout TGI, item COC(=O)C1Cc2c(n(C)c3ccccc23)C(c2ccccc2)N1 (stereo not drawn)
> 100 µM

For OVCAR-4 ovarian, provide TGI of O=C(c1c(F)c(F)c(F)c(F)c1F)n1c(=O)[nH]c2ccccc21 please.
31.8 µM

GET /values?readout=TGI&system=OVCAR-4 ovarian&item= N#Cc1c(Cl)cccc1Oc1ccc(S(=O)(=O)/N=C(\NO)Nc2ccc(Cl)cc2)cc1
31.4 µM

Find TGI (OVCAR-4 ovarian) for the entry COc1ccc2c(c1)nc1n2C(c2c(F)cccc2F)SC1 (stereo not drawn)
> 100 µM

# query: TGI | item CCCCn1c(C)c(C)c2c1NN=C(C#N)S2(=O)=O | system: OVCAR-4 ovarian
> 100 µM

Enter reported TGI observed with OVCAR-4 ovarian for CCNCCNc1cc(-c2ccc(Cl)cc2)c(C#N)c2nc3ccccc3n12
4.09 µM
